# TESTED TARGET: NPC1-like intracellular cholesterol transporter 1 (Homo sapiens)
# ASSAY OVERVIEW: Binding affinity to human GFP-tagged NPC1L1 L1072T/L1168I mutant expressed in HEK293 cells assessed as localization to plasma membrane at 10 uM after 24 hrs by fluorescence microscopic analysis
# Format: cell-based
REPORTED ENDPOINT: Activity

> print(dat)
                           substance.smiles  measured
1  CCCCn1c(=O)c2ccccc2c2cc(C(=O)NC3CCCCC3)ccc21        3%
2  CCCCn1c(=O)c2ccccc2c2cc(C(=O)N(CC)CC)ccc21        1%
3  CCCn1c(=O)c2c(c3cc(C(=O)N(CC)C4CC4)ccc31)CCCCC2        0%
4  CCCCn1c(=O)c2c(c3cc(C(=O)N(CC)CC)ccc31)CCCC2        2%
5  CCCCn1c(=O)c2c(c3cc(C(=O)NCCC)ccc31)CCCCC2        0%
6  CCCCn1c(=O)c2c(c3cc(C(=O)NCC)ccc31)CCCCC2        0%
7  CCCCn1c(=O)c2c(c3cc(C(=O)N(CC)CC)ccc31)CCC2        1%
8  CCCCCCn1c(=O)c2c(c3cc(C(=O)N(CC)C4CC4)ccc31)CCCCC2        1%

---

# TESTED TARGET: NPC1-like intracellular cholesterol transporter 1 (Homo sapiens) (UniProt Q9UHC9)
# Sequence (Q9UHC9 whole entry): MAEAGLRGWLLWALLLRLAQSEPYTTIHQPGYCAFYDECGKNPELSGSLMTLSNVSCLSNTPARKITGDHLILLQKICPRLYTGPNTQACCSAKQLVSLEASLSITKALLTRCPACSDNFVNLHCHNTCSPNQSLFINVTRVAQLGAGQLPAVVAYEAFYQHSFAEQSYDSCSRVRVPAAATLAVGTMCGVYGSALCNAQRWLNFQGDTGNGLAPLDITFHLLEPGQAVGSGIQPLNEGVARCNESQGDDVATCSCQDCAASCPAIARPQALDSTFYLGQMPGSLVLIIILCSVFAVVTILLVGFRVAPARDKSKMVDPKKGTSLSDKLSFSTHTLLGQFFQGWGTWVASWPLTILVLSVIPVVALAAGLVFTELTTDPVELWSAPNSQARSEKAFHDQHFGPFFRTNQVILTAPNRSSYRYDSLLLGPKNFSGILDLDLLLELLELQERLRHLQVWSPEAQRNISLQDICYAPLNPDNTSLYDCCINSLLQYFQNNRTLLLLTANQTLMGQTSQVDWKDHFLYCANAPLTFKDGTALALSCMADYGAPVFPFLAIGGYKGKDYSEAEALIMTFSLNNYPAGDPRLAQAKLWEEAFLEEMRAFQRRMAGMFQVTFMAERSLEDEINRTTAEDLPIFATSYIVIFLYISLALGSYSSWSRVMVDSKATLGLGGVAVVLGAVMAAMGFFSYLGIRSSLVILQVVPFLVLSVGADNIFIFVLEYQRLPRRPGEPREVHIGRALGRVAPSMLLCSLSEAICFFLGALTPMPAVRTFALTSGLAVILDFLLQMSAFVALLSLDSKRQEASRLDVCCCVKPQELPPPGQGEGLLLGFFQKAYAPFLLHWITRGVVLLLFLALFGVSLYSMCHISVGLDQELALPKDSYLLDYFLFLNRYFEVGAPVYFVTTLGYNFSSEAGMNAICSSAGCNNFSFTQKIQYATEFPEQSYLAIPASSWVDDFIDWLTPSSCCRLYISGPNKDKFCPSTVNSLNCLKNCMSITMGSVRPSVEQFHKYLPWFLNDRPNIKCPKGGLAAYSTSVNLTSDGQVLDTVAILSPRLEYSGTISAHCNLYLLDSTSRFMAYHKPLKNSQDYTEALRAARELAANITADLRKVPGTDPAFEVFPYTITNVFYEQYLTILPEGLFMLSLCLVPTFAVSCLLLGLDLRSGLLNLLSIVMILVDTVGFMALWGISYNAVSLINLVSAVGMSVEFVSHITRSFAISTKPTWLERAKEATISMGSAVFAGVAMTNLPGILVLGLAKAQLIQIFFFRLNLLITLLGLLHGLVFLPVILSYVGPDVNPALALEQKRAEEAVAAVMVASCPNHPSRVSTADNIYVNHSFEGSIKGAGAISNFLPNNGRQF
# ASSAY OVERVIEW: Binding affinity to human GFP-tagged NPC1L1 L1072T/L1168I mutant expressed in HEK293 cells assessed as localization to plasma membrane at 30 uM after 24 hrs by fluorescence microscopic analysis
# Format: cell-based
REPORTED ENDPOINT: Activity

> print(dat)
                           substance.smiles                             tested.target  reported.endpoint  measured
1  CCCCn1c(=O)c2c(c3cc(C(=O)NCCO)ccc31)CCCCC2  NPC1-like intracellular cholesterol transporter 1 (Homo sapiens) (UniProt Q9UHC9)           Activity        0%
2  CCCCn1c(=O)c2ccccc2c2cc(C(=O)NCc3ccccc3)ccc21  NPC1-like intracellular cholesterol transporter 1 (Homo sapiens) (UniProt Q9UHC9)           Activity        0%
3  CCCCn1c(=O)c2c(c3cc(C(=O)N(CC)CC)ccc31)CCCC2  NPC1-like intracellular cholesterol transporter 1 (Homo sapiens) (UniProt Q9UHC9)           Activity       42%
